A collection of compounds and their measured pIC50
Molecular target: UniProt:P09874
Sequence (P09874 whole entry): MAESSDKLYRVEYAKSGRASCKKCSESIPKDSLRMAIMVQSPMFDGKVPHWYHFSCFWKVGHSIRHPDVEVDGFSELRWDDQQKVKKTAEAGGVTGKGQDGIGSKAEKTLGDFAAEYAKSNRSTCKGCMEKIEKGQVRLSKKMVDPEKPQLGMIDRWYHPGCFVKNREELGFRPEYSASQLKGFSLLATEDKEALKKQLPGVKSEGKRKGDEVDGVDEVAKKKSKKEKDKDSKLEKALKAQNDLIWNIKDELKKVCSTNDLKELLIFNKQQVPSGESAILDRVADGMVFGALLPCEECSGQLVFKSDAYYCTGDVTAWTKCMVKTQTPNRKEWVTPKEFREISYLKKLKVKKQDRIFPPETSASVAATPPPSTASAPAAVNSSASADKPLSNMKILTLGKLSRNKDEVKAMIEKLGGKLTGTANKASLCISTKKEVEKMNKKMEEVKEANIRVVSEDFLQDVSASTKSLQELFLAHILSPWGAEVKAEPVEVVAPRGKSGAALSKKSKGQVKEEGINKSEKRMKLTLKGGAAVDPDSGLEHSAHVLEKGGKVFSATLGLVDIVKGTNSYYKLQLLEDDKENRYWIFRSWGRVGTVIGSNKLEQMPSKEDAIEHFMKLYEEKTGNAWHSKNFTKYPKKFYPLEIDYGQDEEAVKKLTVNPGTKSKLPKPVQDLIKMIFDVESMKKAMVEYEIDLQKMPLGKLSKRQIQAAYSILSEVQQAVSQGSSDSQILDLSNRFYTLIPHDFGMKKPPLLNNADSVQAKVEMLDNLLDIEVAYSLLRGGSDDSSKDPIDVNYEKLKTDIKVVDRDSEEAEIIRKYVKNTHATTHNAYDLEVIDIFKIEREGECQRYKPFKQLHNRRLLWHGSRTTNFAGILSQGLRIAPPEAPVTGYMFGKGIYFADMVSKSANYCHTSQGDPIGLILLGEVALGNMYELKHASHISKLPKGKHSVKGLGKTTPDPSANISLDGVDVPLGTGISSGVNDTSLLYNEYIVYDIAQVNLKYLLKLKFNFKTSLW
Experiment: Inhibitory activity against human recombinant PARP-1
pIC50: −log10 of the molar value.

>  <COMPOUND>
CC(CC(=O)NCC(=O)c1ccc2ccccc2c1)n1c2c(c(=O)[nH]c1=O)CCCC2 (stereo not given)

>  <INEQUALITY_OPERATOR>
<

>  <pIC50>
5.30

$$$$
>  <COMPOUND>
O=C(CCCCCn1c2c(c(=O)[nH]c1=O)CSCC2)NCC(=O)N1CCN(c2ncccn2)CC1

>  <INEQUALITY_OPERATOR>
=

>  <pIC50>
6.60

$$$$
>  <COMPOUND>
O=C(CCn1c2c(c(=O)[nH]c1=O)CSCC2)NCC(=O)N1CCN(c2cc(C(F)(F)F)ccn2)CC1

>  <INEQUALITY_OPERATOR>
=

>  <pIC50>
7.70

$$$$
>  <COMPOUND>
CN(CC(=O)c1ccc2ccccc2c1)C(=O)CCn1c2c(c(=O)[nH]c1=O)CCCC2

>  <INEQUALITY_OPERATOR>
=

>  <pIC50>
6.40

$$$$
>  <COMPOUND>
O=C(CCn1c2c(c(=O)[nH]c1=O)CSCC2)NCC(=O)N1CCN(c2ccncc2)CC1

>  <INEQUALITY_OPERATOR>
=

>  <pIC50>
7.40

$$$$
>  <COMPOUND>
O=C(CCn1c2c(c(=O)[nH]c1=O)CSCC2)NCC(=O)c1ccc(-c2ccccc2)cc1

>  <INEQUALITY_OPERATOR>
=

>  <pIC50>
7.70

$$$$
>  <COMPOUND>
Nc1cccnc1N1CCN(C(=O)CNC(=O)CCn2c3c(c(=O)[nH]c2=O)CSCC3)CC1

>  <INEQUALITY_OPERATOR>
=

>  <pIC50>
7.15

$$$$
>  <COMPOUND>
O=C(CCn1c2c(c(=O)[nH]c1=O)CCCC2)NCC(=O)c1ccccc1

>  <INEQUALITY_OPERATOR>
=

>  <pIC50>
6.35

$$$$
>  <COMPOUND>
COc1ccc(C(=O)CNC(=O)CCn2c3c(c(=O)[nH]c2=O)CSCC3)cc1

>  <INEQUALITY_OPERATOR>
=

>  <pIC50>
7.60

$$$$
>  <COMPOUND>
O=C(CCn1c2c(c(=O)[nH]c1=O)CCCC2)NCC(=O)N1CCN(c2ncccn2)CC1

>  <INEQUALITY_OPERATOR>
=

>  <pIC50>
7.05

$$$$
>  <COMPOUND>
Nc1cccc(-c2ccc(C(=O)CNC(=O)CCn3c4c(c(=O)[nH]c3=O)CSCC4)cc2)c1

>  <INEQUALITY_OPERATOR>
=

>  <pIC50>
7.70

$$$$
>  <COMPOUND>
O=C(CCn1c2c(c(=O)[nH]c1=O)CSCC2)NCC(=O)N1CCN(c2cccnn2)CC1

>  <INEQUALITY_OPERATOR>
=

>  <pIC50>
7.70

$$$$
>  <COMPOUND>
O=C(CCn1c2c(c(=O)[nH]c1=O)CSCC2)NCC(=O)c1ccc(-c2cccnn2)cc1

>  <INEQUALITY_OPERATOR>
=

>  <pIC50>
7.60

$$$$
>  <COMPOUND>
O=C(Cn1c2c(c(=O)[nH]c1=O)CSCC2)NCCC(=O)N1CCN(c2ncccn2)CC1

>  <INEQUALITY_OPERATOR>
=

>  <pIC50>
7.22

$$$$
>  <COMPOUND>
O=C(CCn1c2c(c(=O)[nH]c1=O)CSCC2)NCC(=O)c1ccc(N2CCCC2)cc1

>  <INEQUALITY_OPERATOR>
=

>  <pIC50>
7.92

$$$$
